Data provenance is patent US8129371B2.

Target: PI3K (Homo sapiens)
Construct: PI3 Kinase γ IC50; other: PI3 Kinase γ; other: PI3 Kinase γ isoform, fluorescence polarization
Sequence (P48736 whole entry, canonical isoform): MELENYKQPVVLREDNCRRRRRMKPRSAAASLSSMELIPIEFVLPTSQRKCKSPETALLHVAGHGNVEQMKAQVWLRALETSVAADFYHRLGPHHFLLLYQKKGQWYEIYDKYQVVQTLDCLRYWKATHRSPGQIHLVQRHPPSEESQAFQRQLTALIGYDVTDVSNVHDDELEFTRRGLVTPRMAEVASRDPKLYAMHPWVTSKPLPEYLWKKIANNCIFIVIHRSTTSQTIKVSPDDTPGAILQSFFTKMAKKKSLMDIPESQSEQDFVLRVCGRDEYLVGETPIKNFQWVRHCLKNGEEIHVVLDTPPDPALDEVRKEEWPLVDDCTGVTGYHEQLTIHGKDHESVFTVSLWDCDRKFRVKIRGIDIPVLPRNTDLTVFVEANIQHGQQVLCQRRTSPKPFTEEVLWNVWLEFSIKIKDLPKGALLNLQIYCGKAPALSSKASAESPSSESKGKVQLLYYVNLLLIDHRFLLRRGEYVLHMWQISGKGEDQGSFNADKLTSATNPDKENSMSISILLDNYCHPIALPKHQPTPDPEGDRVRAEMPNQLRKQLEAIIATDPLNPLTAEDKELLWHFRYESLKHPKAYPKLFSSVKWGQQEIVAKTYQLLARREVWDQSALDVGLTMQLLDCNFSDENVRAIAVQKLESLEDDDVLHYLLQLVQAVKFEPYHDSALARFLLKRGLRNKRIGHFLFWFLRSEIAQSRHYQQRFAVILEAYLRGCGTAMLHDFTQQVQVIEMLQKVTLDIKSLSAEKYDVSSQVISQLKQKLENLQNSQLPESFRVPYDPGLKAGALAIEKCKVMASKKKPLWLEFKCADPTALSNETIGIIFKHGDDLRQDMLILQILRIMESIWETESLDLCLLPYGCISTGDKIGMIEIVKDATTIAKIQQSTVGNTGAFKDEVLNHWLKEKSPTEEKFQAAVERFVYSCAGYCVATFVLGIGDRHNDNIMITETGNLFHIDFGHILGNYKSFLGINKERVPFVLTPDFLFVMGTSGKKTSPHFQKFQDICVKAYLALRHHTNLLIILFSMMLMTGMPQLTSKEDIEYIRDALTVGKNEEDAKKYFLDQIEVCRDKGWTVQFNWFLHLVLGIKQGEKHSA
Experiment: Fluorescence polarization assay for PI3K
Assay type: biochemical
Settings: PI3 Kinase γ; read-out: PI3 Kinase γ IC50
Quantity Name: IC50

Example entries and their recorded answers appear below.
> print(dat)
                                   compound   result
1  CCNC(=O)Nc1ccc(-c2nc(N3CC4CCC(C3)O4)c3cnn(C(C)(C)C)c3n2)cc1 [Example 94]  > 10 µM
2  CN(C)CCn1ncc2c(N3CC4CCC(C3)O4)nc(-c3ccc(NC(=O)Nc4ccc(N5CCN(C)CC5)cc4)cc3)nc21 [Example 159]  3.82 µM
3  Nc1ccc(-c2nc(N3CC4CCC(C3)O4)c3cnn(CCO)c3n2)cc1 [Example 207]  > 10 µM

Task: Record request: IC50 value, item CCOC(=O)N1CCC(n2ncc3c(N4CC5CCC(C4)O5)nc(-c4ccc(NC(=O)NC5CCN(C(=O)OC(C)(C)C)CC5)cc4)nc32)CC1 [Example 37]
Result: 7.39 µM

Task: Please answer likewise for O=C(Nc1ccccc1)Nc1ccc(-c2nc(N3CC4CCC(C3)O4)c3cnn(C4CCC5(CC4)OCCO5)c3n2)cc1 [Example 127]
Result: > 10 µM

Task: Here is the next compound: CNC(=O)Nc1ccc(-c2nc(N3CC4CCC(C3)O4)c3cnn(C)c3n2)cc1 [Example 50]
Result: 6.29 µM

Task: Same read-out for O=C1CCC(n2ncc3c(N4CC5CCC(C4)O5)nc(-c4ccc(NC(=O)OCCO)cc4)nc32)CC1 [Example 211] ?
Result: > 10 µM

Task: Another compound to check: O=C(Nc1ccc(-c2nc(N3CC4CCC(C3)O4)c3cnn(C4CCC5(CC4)OCCO5)c3n2)cc1)NC1CC1 [Example 126]
Result: > 10 µM

Task: What do you get for CNC(=O)Nc1ccc(-c2nc(N3CC4CCC(C3)O4)c3cnn(CCC#N)c3n2)cc1 [Example 214] ?
Result: > 10 µM

Task: Entry CNC(=O)Nc1ccc(-c2nc(N3CC4CCC(C3)O4)c3cnn(C4CCN(C(=O)OC(C)C)CC4)c3n2)cc1 [Example 66] please
Result: > 10 µM

Task: Thanks! And CCNC(=O)Nc1ccc(-c2nc(N3CC4CCC(C3)O4)c3cnn(C4CCN(C(=O)OCC)CC4)c3n2)cc1 [Example 31] ?
Result: 11 µM

Task: And then Cn1ncc2c(N3CC4CCC(C3)O4)nc(-c3ccc(NC(=O)NCCF)cc3)nc21 [Example 52] , what is it?
Result: 9.5 µM

Task: Request: O=C(Nc1ccc(-c2nc(N3CC4CCC(C3)O4)c3cnn(CC(F)(F)F)c3n2)cc1)Nc1ccc(N2CCOCC2)nc1 [Example 252]
Result: > 10 µM

Task: Try this compound next: COC(=O)N1CCC(n2ncc3c(N4CC5CCC(C4)O5)nc(-c4ccc(NC(=O)Nc5ccncc5)cc4)nc32)CC1 [Example 14]
Result: 2.05 µM

###

Target: Human mTOR (FLAG-TOR) (Homo sapiens, UniProt P42345)
Construct: FLAG
Assay: Human mTOR kinase assay with purified enzyme, DELFIA format
Type: biochemical
pIC50: −log10 of the molar value.
Quantity Name: pIC50

For orientation, consider the following solved cases.
> print(dat)
                                   molecule  quantity.name  number
1  Cn1ncc2c(N3CC4CCC(C3)O4)nc(-c3ccc(NC(=O)Nc4ccc(N5CCOCC5)nc4)cc3)nc21 [Example 237]          pIC50    9.43
2  CNC(=O)Nc1ccc(-c2nc(N3CC4CCC(C3)O4)c3cnn(C4CCC(=O)CC4)c3n2)cc1 [Example 106]          pIC50    9.66

I. CNC(=O)Nc1ccc(-c2nc(N3CC4CCC(C3)O4)c3cnn(Cc4ccccc4)c3n2)cc1 [Example 77]
II. O=C(Nc1ccc(-c2nc(N3CC4CCC(C3)O4)c3cnn(C4CCN(Cc5cccnc5)CC4)c3n2)cc1)Nc1cccnc1 [Example 18]
III. CCOC(=O)Nc1ccc(-c2nc(N3CC4CCC(C3)O4)c3cnn(C4CCN(C(=O)OC)CC4)c3n2)cc1 [Example 111]
Task: Descending sort on pIC50 required. I'd appreciate it if you listed the labels in the requested order.
Result: II, I, III
(II: 9.60, I: 8.66, III: 8.07)
